measured on: wild-type Choristoneura fumiferana EcR (D, E and F domains) (Choristoneura fumiferana, UniProt O77240)
Format: cell-based
test settings: R; WT-CtEcR, 3T3 Cells
pEC50: −log10 of the molar value.
Label 1 for high-side pEC50 (at or above 7) and 0 for low-side pEC50 (below it).

Reference set, count: 5
Q: Hi, just wondering whether CCC[C@@H](N(NC(=O)c1ccc(Cl)nc1)C(=O)c1cc(C)cc(C)c1)C(C)(C)C [Example 28] shows pEC50 of 7 or higher.
Ans: 0

Q: Follow-up entry: CCC[C@@H](N(NC(=O)c1ccc(CC)cc1)C(=O)c1cc(C)cc(C)c1)C(C)(C)C [Example 12]
Ans: 1

Q: Follow-up entry: C=CC[C@@H](CCc1ccccc1)N(NC(=O)c1ccc(CC)cc1)C(=O)c1cc(C)cc(C)c1 [Example 62]
Ans: 0

Q: Follow-up entry: CCC[C@@H](N(NC(=O)c1ccc2c(c1C)OCO2)C(=O)c1cc(C)cc(C)c1)C(C)(C)C [Example 20]
Ans: 1

Q: Follow-up entry: CCC[C@@H](N(NC(=O)c1cccs1)C(=O)c1cc(C)cc(C)c1)C(C)(C)C [Example 25]
Ans: 0

Continuing:
Q: Hi, just wondering whether CCC[C@@H](N(NC(=O)c1ccccc1OC)C(=O)c1cc(C)cc(C)c1)C(C)(C)C [Example 4] shows pEC50 of 7 or higher.
Ans: 0

Q: Follow-up entry: C=CC[C@@H](N(NC(=O)OCc1ccccc1)C(=O)c1cc(C)cc(C)c1)C(C)(C)C [Example 1.5]
Ans: 0

Q: Follow-up entry: CCC[C@@H](N(NC(=O)c1cccc(OC)c1CC)C(=O)c1cc(C)cc(C)c1)C(C)(C)C [Example 1]
Ans: 1

Q: Follow-up entry: CCC[C@@H](N(NC(=O)c1ccc2c(c1CC)OCCO2)C(=O)c1cc(C)cc(C)c1)C(C)(C)C [Example 22]
Ans: 1
